Listed next: entries and their corresponding IC50.
target: Human Factor D (Homo sapiens (Human), UniProt P00746); experiment: Human Factor D Assay; assay type: biochemical; details: Table 1; Factor D purified from human serum, 80 nM, substrate Z-L-Lys-SBzl; read-out: IC50
Sequence (P00746 26-253): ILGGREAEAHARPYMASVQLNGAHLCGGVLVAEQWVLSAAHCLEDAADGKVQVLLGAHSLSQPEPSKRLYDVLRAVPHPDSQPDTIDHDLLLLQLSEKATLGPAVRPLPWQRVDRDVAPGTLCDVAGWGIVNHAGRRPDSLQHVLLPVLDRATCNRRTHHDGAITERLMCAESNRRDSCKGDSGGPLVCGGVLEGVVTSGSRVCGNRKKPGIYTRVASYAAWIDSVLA

Example results:
[
  {
    "compound_structure": "CC(=O)c1cn(CC(=O)N2C[C@H](F)C[C@H]2C(=O)Nc2cccc3c2OC(C)(C)C3)c2ccc(Nc3cncnc3)cc12",
    "assayed_system": "Human Factor D (Homo sapiens (Human), UniProt P00746)",
    "IC50": "< 1000 nM"
  },
  {
    "compound_structure": "CC(=O)c1cn(C(=O)CN2C[C@H](F)C[C@H]2C(=O)Nc2nnc(-c3ccc(Cl)c(Cl)c3)s2)c2ccc(Nc3cncnc3)cc12",
    "assayed_system": "Human Factor D (Homo sapiens (Human), UniProt P00746)",
    "IC50": "> 10000 nM"
  },
  {
    "compound_structure": "CC(=O)c1cn(CC(=O)N2C[C@H](F)C[C@H]2C(=O)Nc2cccc(O)n2)c2ccc(Nc3cncnc3)cc12",
    "assayed_system": "Human Factor D (Homo sapiens (Human), UniProt P00746)",
    "IC50": "< 1000 nM"
  },
  {
    "compound_structure": "CCN1Cc2ccc(NC(=O)[C@@H]3C[C@@H](F)CN3C(=O)Cn3cc(C(C)=O)c4cc(Nc5cncnc5)ccc43)cc2C1=O",
    "assayed_system": "Human Factor D (Homo sapiens (Human), UniProt P00746)",
    "IC50": "< 1000 nM"
  },
  {
    "compound_structure": "CC(=O)c1cn(CC(=O)N2C[C@H](F)C[C@H]2C(=O)Nc2noc(-c3ccccc3Cl)n2)c2ccc(Nc3cncnc3)cc12",
    "assayed_system": "Human Factor D (Homo sapiens (Human), UniProt P00746)",
    "IC50": "< 1000 nM"
  }
]

Entry CC(=O)c1cn(CC(=O)N2C[C@H](F)C[C@H]2C(=O)N[C@@H]2CCC[C@H]2O)c2ccc(Nc3cncnc3)cc12 has what IC50?
1000 to 10000 nM

This collection of values is drawn from patent US10660876B2.
